Recorded values, source patent US20250382355A1.

- tgt: Biotinylated CoV2 Spike ECD PreS-AVI protein (SARS-CoV-2, UniProt P0DTC2 14-1208)
- assay-details: Octet binning; competitor Std-A
quantity-kind: binning response

[[record]]
binder = "15H1 VHH-Fc (Fc fusion) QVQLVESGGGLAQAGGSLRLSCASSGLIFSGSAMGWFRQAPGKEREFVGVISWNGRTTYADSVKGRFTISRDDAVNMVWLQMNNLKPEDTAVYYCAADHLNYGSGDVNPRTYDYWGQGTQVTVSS"
quantity_kind = "binning response"
observed_result = 0.35

[[record]]
binder = "13C8 VHH-Fc (Fc fusion) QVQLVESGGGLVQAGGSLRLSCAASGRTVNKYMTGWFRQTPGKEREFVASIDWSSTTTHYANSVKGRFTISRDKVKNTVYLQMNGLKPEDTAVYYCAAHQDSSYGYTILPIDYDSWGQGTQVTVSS"
quantity_kind = "binning response"
observed_result = 0.34

[[record]]
binder = "5A6 VHH-Fc (Fc fusion) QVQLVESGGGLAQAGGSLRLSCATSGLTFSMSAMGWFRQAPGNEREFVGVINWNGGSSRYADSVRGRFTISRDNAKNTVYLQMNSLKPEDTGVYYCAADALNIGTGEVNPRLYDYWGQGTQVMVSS"
quantity_kind = "binning response"
observed_result = 0.39

